Each recorded value in this set is attributed to paper PMC7074199.

- Measured Target: butyrylcholinesterase (BChE) from equine serum (Equus caballus)
- Construct: butyrylcholinesterase (BChE) from equine serum (lyophilized powder); purchased Sigma-Aldrich (Milan, Italy); host or cells: equine serum
- Sequence (P81908 whole entry): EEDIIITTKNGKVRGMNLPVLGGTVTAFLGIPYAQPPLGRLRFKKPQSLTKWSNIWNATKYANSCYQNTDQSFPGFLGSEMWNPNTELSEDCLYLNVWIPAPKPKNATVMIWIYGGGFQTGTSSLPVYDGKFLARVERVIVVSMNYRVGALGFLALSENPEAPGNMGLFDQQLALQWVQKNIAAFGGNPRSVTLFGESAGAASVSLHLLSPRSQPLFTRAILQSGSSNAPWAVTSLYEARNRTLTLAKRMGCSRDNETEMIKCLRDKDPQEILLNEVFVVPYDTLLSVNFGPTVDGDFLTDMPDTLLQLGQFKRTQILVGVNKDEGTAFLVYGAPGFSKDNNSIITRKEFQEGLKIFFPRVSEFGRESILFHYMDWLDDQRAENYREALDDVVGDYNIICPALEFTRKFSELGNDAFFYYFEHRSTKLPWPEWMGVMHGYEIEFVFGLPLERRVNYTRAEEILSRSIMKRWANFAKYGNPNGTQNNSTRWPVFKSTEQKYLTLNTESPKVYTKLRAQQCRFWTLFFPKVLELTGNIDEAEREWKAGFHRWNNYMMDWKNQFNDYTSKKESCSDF
- Assay Text: biochemical
- Conditions: read-out: BChE IC50
Assay Readout: pIC50
# reply with the number alone; pIC50 is -log10 of concentration in mol/L

Asked: Query: pIC50; subject: C[C@H]1[C@H](C)CC[C@]2(C(=O)O)CC[C@]3(C)C(=CC[C@@H]4[C@@]5(C)CC[C@H](O)C(C)(C)[C@@H]5CC[C@]43C)[C@H]12 [Ursolic acid]
Given back: 4.08
